Values from patent US20260116991A1

Items are presented alongside their recorded koff.
target: T1, human GPC3-His protein (human, UniProt P51654 25-559)
T1 construct: also called human GPC3 protein; not shown: His tag
protocol-text: SPR, antibody captured on Protein A chip, human GPC3-His analyte;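 note: measured at 25 °C flow cell, human GPC3-His injected at five concentrations up to 200 nM, 240 s association, up to 600 s dissociation, double-referenced, fitted to Langmuir 1:1 model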

| binder | koff [s⁻¹] |
| --- | --- |
| F1.115.8 (antibody, human IgG1, kappa, V domains shown, Human-murine chimeric antibody) VH: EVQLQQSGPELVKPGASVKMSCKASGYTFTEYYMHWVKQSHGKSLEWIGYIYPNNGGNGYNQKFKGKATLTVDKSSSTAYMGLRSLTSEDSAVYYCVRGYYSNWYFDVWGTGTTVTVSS VL: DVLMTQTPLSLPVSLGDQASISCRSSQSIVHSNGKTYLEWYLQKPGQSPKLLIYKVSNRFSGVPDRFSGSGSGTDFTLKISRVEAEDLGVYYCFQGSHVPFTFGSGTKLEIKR | 0.00115 |
| F1.136.7 (antibody, human IgG1, kappa, V domains shown, Human-murine chimeric antibody) VH: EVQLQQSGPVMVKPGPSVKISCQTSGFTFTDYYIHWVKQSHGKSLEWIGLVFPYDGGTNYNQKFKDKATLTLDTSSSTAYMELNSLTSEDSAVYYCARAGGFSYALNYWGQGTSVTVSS VL: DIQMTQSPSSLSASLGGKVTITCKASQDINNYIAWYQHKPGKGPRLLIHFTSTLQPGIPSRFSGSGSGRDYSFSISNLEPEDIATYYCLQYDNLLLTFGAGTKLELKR | 7.03e-05 |
| F1.62.9 (antibody, human IgG1, kappa, V domains shown, Human-murine chimeric antibody) VH: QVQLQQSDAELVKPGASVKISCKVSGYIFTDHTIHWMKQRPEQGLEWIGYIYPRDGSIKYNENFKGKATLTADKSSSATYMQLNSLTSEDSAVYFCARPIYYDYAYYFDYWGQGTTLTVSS VL: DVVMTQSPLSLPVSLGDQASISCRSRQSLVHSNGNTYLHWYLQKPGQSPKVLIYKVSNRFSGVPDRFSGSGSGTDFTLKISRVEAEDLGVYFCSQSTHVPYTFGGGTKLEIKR | 0.00129 |
